Recorded Kd by entry
Target: T1, TAZ2 domain of mouse CBP (residues 1764-1855) (mouse, UniProt P45481 1764-1855)
T1 sequence (looked up): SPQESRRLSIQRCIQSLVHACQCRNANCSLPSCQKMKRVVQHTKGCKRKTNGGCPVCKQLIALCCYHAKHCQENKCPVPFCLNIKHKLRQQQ
Assay: fluorescence polarisation
Where no end group is shown, it is not given here. [ ]: non-standard residue; d: D form. pS = N[C@@H](COP(=O)(O)O)C(=O)O
All answers are understood in nM, so give the number only.

Problem: # query: Kd of entry ppE7(1-51), HPV16 E7(1-51) phosphorylated by casein kinase II at serines 31 and 32 (domain or fragment) MHGDTPTLHEYMLDLQPETTDLYCYEQLND[pS][pS]EEEDEIDGPAGQAEPDRAH
Result: 7

Problem: What about this binder? pp6b-E7(1-51), phosphorylated E7(1-51) from low risk HPV6b (domain or fragment, also: phosphorylated by CKII, positions not given here) MHGRHVTLKDIVLDLQPPDPVGLHCYEQLVDSSEDEVDEVDGQDSQPLKQH
Result: 31

Problem: What about this binder? E7(1-51) from HPV16, unphosphorylated, tag removed (domain or fragment) MHGDTPTLHEYMLDLQPETTDLYCYEQLNDSSEEEDEIDGPAGQAEPDRAH
Result: 22

Problem: What about this binder? 6b-E7(1-51), unphosphorylated E7(1-51) from low risk HPV6b (domain or fragment) MHGRHVTLKDIVLDLQPPDPVGLHCYEQLVDSSEDEVDEVDGQDSQPLKQH
Result: 79
